The measurements presented in this section are drawn from ChEMBL document CHEMBL1151604.

Record form. Attribute: EC50. Fill in for each entry.
system: MT4; assay: In vitro evaluation of antiviral activity against HSV-1 (Herpes simplex virus-1) induced cytopathic effect in MT-4 cells by indirect immunofluorescence assay; type: functional, cell-based; details: Homo sapiens
Report the figure in µg/mL without appending any unit label.

[in] Item Nc1nc(O)c2ncn(N3CC(CO)C3CO)c2n1 (centres undefined) has what recorded EC50?
[out] 0.46

[in] Item "Cc1cn([C@H]2C[C@H](N=[N+]=[N-])[C@@H](CO)O2)c(=O)[nH]c1=O" has what recorded EC50?
[out] 0.0032

[in] Item Nc1ncnc2c1ncn2N1CC(CO)C1CO (centres undefined) has what recorded EC50?
[out] 0.37

[in] Item "O=c1[nH]cnc2c1ncn2[C@H]1CC[C@@H](CO)O1" has what recorded EC50?
[out] 0.46
